These entries and their values trace back to patent US20250243286A1.

Target: T1, human ActRIIA (human, UniProt P27037 20-135, limits assumed)
T1 construct: antigen in MSD-SET; also called ACVR2A; ActR2A
T1 sequence (P27037 20-135 limits assumed): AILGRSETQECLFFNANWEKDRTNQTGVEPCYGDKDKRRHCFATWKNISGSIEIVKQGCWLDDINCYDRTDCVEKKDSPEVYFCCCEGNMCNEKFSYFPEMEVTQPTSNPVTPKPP
Assay: MSD-SET
Give measured Kd for each item. Keep answers brief.
Numbers only, in nM.

# binder, unit text, recorded number
data = [
    ("Rippla Fab (Fab, V domains shown, Fab) VH: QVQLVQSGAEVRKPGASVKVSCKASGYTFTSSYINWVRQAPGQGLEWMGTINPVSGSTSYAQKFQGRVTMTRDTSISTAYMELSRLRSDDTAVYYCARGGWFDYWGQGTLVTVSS VL: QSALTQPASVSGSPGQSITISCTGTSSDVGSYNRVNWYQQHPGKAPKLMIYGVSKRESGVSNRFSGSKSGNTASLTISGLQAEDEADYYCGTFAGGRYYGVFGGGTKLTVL", "nM", 0.157),
]

// next item, Kd requested
// query Answer with the recorded Kd of Hefaknöpfla Fab (Fab, V domains shown, Fab) VH: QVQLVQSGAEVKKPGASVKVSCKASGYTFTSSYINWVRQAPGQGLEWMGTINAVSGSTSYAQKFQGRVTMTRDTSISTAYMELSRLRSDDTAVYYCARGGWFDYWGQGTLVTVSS VL: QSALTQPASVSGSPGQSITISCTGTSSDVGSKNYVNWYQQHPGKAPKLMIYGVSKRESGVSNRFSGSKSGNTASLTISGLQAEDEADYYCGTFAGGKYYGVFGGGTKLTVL only.
// result 0.091
